Values compiled from a protein production outcome set (Wang et al. 2014).

experiment_summary: label from the status in PepcDB records

biosequence	protein production
MPVQENSFKSYSEVITGSIIYGTIGVFLDRVQDMSVGSVLFCRLLFGVFMIFFYLLLSGSLEQLRLRRNRKYLLLLGFLNAVTGICYLSAIRHSGISTAVLLLYTAPVYVNLLAPAILGEKGSSKSFLPLILSVLGVLLITRPGEILFNINAGSEFIKGLLYGILSGISFGTTIILIRYLRHDYTGISQTFWLTGVSLLFMLPSALLTPASVFLKNFDTLFLFGITITFAAILYLRGISGIKAQTGSILALLEPVSGIFFDTVVLRSPFYISTLLGCVLILTAAYLVSRNGTGDQSLKTDNQPVL	failed
METLSDVFATFSQRGDTTAFVHRTGVRRYVFTYLDLHALSLRMNRWLADQGVGEGDRVVLWGPNSPWWAVAFWGIVTRGAVAVPVDFMSGAERAEIIAGLTDAKLVIQSRDKLEHHHHHH	not failed
MTVRVCKMDGEVMPVVVVQNATVLDLKKAIQRYVQLKQEREGGVQHISWSYVWRTYHLTSAGEKLTEDRKKLRDYGIRNRDEVSFIKKLGQK	not failed
SAVLVALSLAGLPTDRFFFDGFLPSKQGARRARLGELAAIDATLVLFEAGSRIQNSVHDLADLLGATREAAICRELTKLHQEVRRATLAELAAQADTMETRGEFVVVIAP	failed
